- Tested on: MS2 coat protein
- PROTOCOL TEXT: apparent KD of MS2 coat protein; designed switch direction (-1 OFF switch, 1 ON switch): 1; higher = weaker reporter binding
- CONDITION INFO: input ligand: none
PROPERTY MEASURED: apparent KD of MS2 coat protein (nM)
Return type: number; implicit unit nM.

{"BIOSEQUENCE": "GCUCGAUGAUAGGCCUACAUGAGGAUCACCCAUGUGACUGGGCAGGAUAUCUAAAUGCAGAAUGUAGAGAAGGGCCCGUCGAGC [SameState NG3 #52] (Eterna round: R96, puzzle: Same State NG 3)", "DISPLAY UNIT": "nM", "apparent KD of MS2 coat protein": 409}

The recorded apparent KD of MS2 coat protein for CAUCGUUUGAUAGGAUAUCGCUAUACAUGAGGAUCACCCAUGUUUACCACGCUGGUUUUUCAUACCGAGAAGGAUUCUGAUGAG [salish99_SSNG02_r04_012] (Eterna round: R96, puzzle: Same State NG 2) is 47.6

Note to self: apparent KD of MS2 coat protein recorded for GAGAGAUGGCUAGGAUAUUCGGUGAUAAUGAUAGAAGAAGGAGCUGACAUGAGGAUCACCCAUGUGGGAAUAAUCCAGAGAGAG [Parity 19 - Jieux - Same State NG 1] (Eterna round: R96, puzzle: Same State NG 1) was 96.7

Entry UAUUAGAUCCGAGGAUAUCCUUAUUACAAACAUGAGGAUCACCCAUGUAAAGGGAAUGAGUUGUAGGAGAAGGCGGAUUUAGUU [JR_SSNG2_Sub057] (Eterna round: R96, puzzle: Same State NG 2) — recorded apparent KD of MS2 coat protein = 51

Form field apparent KD of MS2 coat protein, entry GGAGCCGGCCUAGGAUAUUUCAUAAUUUAACAUGAGGAUCACCCAUGUAGGCCAGAAGGCCUUGGGAAGAAGGAGGUCGGCUCC [Loop Effect - U26,U27,U28] (Eterna round: R96, puzzle: Same State NG 2) : 76.9
